Test: qHTS for Inhibitors of human tyrosyl-DNA phosphodiesterase 1 (TDP1): qHTS in cells in presence of CPT; note: nearly all actives have a fitted effect of over 55% in size; note: potency is the fitted concentration of half-maximal effect
Conditions: chicken DT40 Tdp1-/-;hTDP1 cells + 20 nM CPT, ATP luminescence, 48 h; series mostly up to 46.2 µM
Out of some 420,000 compounds screened, about 50,000 (12%) were called active. Another 26% or so got no clear call; they are omitted. Only a selection was taken, and actives are over-represented in it overall.
measurement_kind: Potency

CN1CC(O)c2cc(N=NC(N)=O)c(O)cc21 (stereo unspecified) ... inactive
COc1ccccc1OCCCC(=O)Nc1ccc2c(c1)OCCO2 ... inactive
CCOC(=O)Cc1ccc(NC(=O)Nc2c[nH]c(=O)[nH]c2=O)cc1 ... inactive
Cc1nc2sc3c(c2c(=O)n1NC(=O)CCl)CCCC3 ... inactive
CC(=O)c1cnc(SCC(=O)O)nc1C ... inactive

The compound identified as COc1ccccc1C(=O)NC(CCSC)C(=O)NNC(=O)c1ccccc1C (stereo unspecified) registered its Potency at inactive

The compound identified as COc1ccc(-c2c(C(C)=O)c(C)nc3sc4c(=O)n(-c5ccc(C)cc5)nnc4c23)cc1 registered its Potency at inactive

The compound identified as O=C(N/N=C/c1ccc([N+](=O)[O-])o1)c1cn(-c2ccccc2)nc1-c1ccc(F)cc1 registered its Potency at 7.31 µM (active)

The compound identified as COCCn1c(C)cc(C(=O)CSc2ncnc3sc4c(c23)CCC4)c1C registered its Potency at inactive

The compound identified as Cc1ccccc1C#CC1=CC(=O)CC(C)(C)C1 registered its Potency at 20.6 µM (active)

The compound identified as Cn1ccc(=Nc2ccc(NC(=O)c3ccc(N=c4ccn(C)c5ccc([N+](=O)[O-])cc45)cc3)cc2)cc1 registered its Potency at 3.66 µM (active)

The compound identified as COc1cc(NS(=O)(=O)c2ccc(NC(=O)c3ccc([N+](=O)[O-])cc3)cc2)ncn1 registered its Potency at inactive

The compound identified as O=C(CN1CCSCC1)N/N=C/c1ccc(F)cc1F registered its Potency at inactive

The compound identified as COC(=O)Cc1csc(Nc2c(C)n(C)n(-c3ccccc3)c2=O)n1 registered its Potency at inactive

The compound identified as C#CCCCc1nc2ccccc2c(=O)n1N registered its Potency at inactive
